# SYSTEM_UNDER_TEST: nucleolin (UniProt P19338)
# Sequence (P19338 whole entry): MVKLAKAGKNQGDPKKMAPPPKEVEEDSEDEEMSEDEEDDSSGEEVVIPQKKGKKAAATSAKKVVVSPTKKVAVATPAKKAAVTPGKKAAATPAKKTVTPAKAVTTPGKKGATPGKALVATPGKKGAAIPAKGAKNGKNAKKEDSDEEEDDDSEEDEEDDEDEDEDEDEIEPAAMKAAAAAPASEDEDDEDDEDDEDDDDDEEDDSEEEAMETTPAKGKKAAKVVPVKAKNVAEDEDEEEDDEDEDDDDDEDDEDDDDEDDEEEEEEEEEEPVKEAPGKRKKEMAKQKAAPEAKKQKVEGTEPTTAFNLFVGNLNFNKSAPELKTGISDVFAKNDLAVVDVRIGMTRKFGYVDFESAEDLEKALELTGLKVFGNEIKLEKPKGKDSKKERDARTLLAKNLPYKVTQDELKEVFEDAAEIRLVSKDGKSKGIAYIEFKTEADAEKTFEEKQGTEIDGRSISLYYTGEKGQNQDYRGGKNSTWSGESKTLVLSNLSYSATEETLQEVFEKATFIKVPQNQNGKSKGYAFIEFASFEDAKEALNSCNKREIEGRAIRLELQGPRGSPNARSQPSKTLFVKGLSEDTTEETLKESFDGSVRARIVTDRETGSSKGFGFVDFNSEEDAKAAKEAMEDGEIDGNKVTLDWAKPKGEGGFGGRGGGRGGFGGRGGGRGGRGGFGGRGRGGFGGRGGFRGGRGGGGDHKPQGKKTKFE
# PROCEDURE_TEXT: fluorescence titration
# APPLIED_CONDITIONS: with ligand C8, Cy3-AS1411 at 1 uM (Kd far below probe concentration), Fluorescence titration: buffer for the nucleolin titration not stated separately (C8-aptamer titrations: 30 mM potassium phosphate pH 7.2, 100 mM KCl)
MEASURE_NAME: Kd (pM)
Quick note: give the figure in pM, leave out the unit.

Lookup: Recall and state the measured Kd for GGTGGTGGTGGTTGTGGTGGTGGTGG [Cy3-AS1411] .
Found: 6.38

---

# SYSTEM_UNDER_TEST: nucleolin (UniProt P19338)
# PROCEDURE_TEXT: fluorescence titration
# APPLIED_CONDITIONS: no C8, Cy3-AS1411 at 1 uM (Kd far below probe concentration), Fluorescence titration: buffer for the nucleolin titration not stated separately (C8-aptamer titrations: 30 mM potassium phosphate pH 7.2, 100 mM KCl)
MEASURE_NAME: Kd

Lookup: Recall and state the measured Kd for GGTGGTGGTGGTTGTGGTGGTGGTGG [Cy3-AS1411] .
Found: 8.63 pM
